Hello, the source for this data is patent US6911443B2, in case you need it.

This listing pairs molecules with measured IC50.
Biological target: human Syk (GST-Syk) (Homo sapiens)
Construct: A cDNA fragment encoding human Syk openreading frame was cloned; made in house; host or cells: Sf21 insect cells (baculovirus, transfer vector pAcG2T)
Assay: Syk tyrosine kinase inhibitory assay
Assay type: biochemical
Conditions: in vitro; compounds as yielded by solid phase synthesis, purity about 40 to 90%; read-out: Activity grade (IC50 class)

COc1ccc(-c2cc3nccn3c(Sc3ccc(/C=C/C(=O)O)c(C)c3)n2)cc1OC [Example 13-22]	< 500 nM
COc1ccc(CNc2nc(-c3ccc(OC)c(OC)c3)cc3nccn23)c(OC)c1 [Example 9-80]	500 to 2000 nM
COc1ccc(-c2cc3nccn3c(Nc3cccc(C(C)=O)c3)n2)cc1OC [Example 11-59]	< 500 nM
COc1ccc(-c2cc3nccn3c(Sc3cccc(CC(O)O)c3)n2)cc1OC [Example 13-20]	< 500 nM

For the molecule CCSc1nc(-c2ccc(OCCCN(C)CC)c(OC)c2)cc2nccn12 [Example 5-2] , report IC50. < 500 nM

Could you please provide reported IC50 for COc1ccc(-c2cc3nccn3c(Nc3ccc(S(C)(=O)=O)cc3)n2)cc1OC [Example 11-127] ? Thanks! < 500 nM

Return IC50 (reported value) for this molecule: COC(=O)CCSc1nc(-c2ccc(OC)c(OC)c2)cc2nccn12 [Example 9-90] < 500 nM

Report IC50 for COc1ccc(-c2cc3nccn3c(N3CCN(C)CC3)n2)cc1OC [Example 9-37] 500 to 2000 nM

Entry COc1ccc(-c2cc3nccn3c(N3CCN(c4ccccc4)CC3)n2)cc1OC [Example 9-33] needs its IC50 filled in; supply it. 2000 to 10000 nM

Indicate its recorded IC50; the molecule in question is COc1ccc(-c2cc3nccn3c(Nc3cccc(S(C)(=O)=O)c3)n2)cc1OC [Example 11-120] < 500 nM

Kindly indicate its recorded IC50. Item: COc1ccc(-c2cc3nccn3c(Nc3ccc(C(=O)NCC(=O)O)cc3)n2)cc1OC [Example 11-23] < 500 nM

Recall and state the measured IC50 for COc1ccc(-c2cc3nccn3c(Nc3ccc([N+](=O)[O-])cc3)n2)cc1OC [Example 11-33] . < 500 nM

Let me know recorded IC50 for CCN(Cc1ccncc1)c1nc(-c2ccc(OC)c(OC)c2)cc2nccn12 [Example 9-52] , thanks. 500 to 2000 nM

Please look at this molecule and report its IC50: COc1ccc(-c2cc3nccn3c(N(CCC#N)c3ccccc3)n2)cc1OC [Example 11-48] < 500 nM

Find the measured IC50 of COc1ccc(-c2cc3nccn3c(Nc3cccc(C(N)=O)c3)n2)cc1OC [Example 11-11] and report it. < 500 nM

Output measured IC50 for this item: COc1ccc(-c2cc3nccn3c(N3CCc4ccccc43)n2)cc1OC [Example 9-13] 500 to 2000 nM
